meta.source: ChEMBL document CHEMBL1121872

- Tested on: Rattus norvegicus
- testProtocol: Decrease in arterial blood pressure in anesthetized rats at 15 mg/kg after intravenous femoral injection
- Type: functional, Artery
- Parameters: unit not given here
testReadout: Mean arterial blood pressure
Answers are plain numbers.

Record excerpt, results attached:
> print(dat)
                                   compound                   testreadout  experimentalresult
1              CCCCN1C(=O)CC(=O)[n+]2ccsc21  Mean arterial blood pressure                 1.2
2              Cn1c(=O)c2nc[nH]c2n(C)c1=O.O  Mean arterial blood pressure                2.36
3  CCC1C(=O)N(CC)c2sc(C)n[n+]2C1=O (configuration not stated)  Mean arterial blood pressure                 0.3
4  CC[N+]1=C2SC=NN2C(=O)C(C)C1=O (configuration not stated)  Mean arterial blood pressure                 1.2
5  CCC1C(=O)N2N=CSC2=[N+](CC)C1=O (configuration not stated)  Mean arterial blood pressure                 0.7
6  CCN1C(=O)C(C)C(=O)[n+]2nc(C)sc21 (configuration not stated)  Mean arterial blood pressure                 0.5

// next entry
In: Report Mean arterial blood pressure for CCC1C(=O)N(CC)c2scc[n+]2C1=O (configuration not stated) tested on Rattus norvegicus.
Out: 1.2

----------
Please provide measured Relative potency for the entries that follow.
- Species: Bos taurus
- testProtocol: Compound was evaluated for potency against c-AMP phosphodiesterase relative to theophylline
Numbers only.

> print(dat)
                                   molecule  experimentalresult
1  CCN1C(=O)C(C)C(=O)[n+]2nc(C)sc21 (stereo not given)                 0.1
2  CC(C)Cn1c(=O)n(C)c(=O)c2nc[nH]c21 [ISOBUTYLMETHYLXANTHINE]                28.9
3  CCN1C(=O)C(Cc2ccc(Cl)cc2)C(=O)[n+]2ncsc21 (stereo not given)                42.9

Record Relative potency per entry; entries follow.
1. CCN1C(=O)C(c2ccccc2)C(=O)[n+]2ncsc21 (stereo not given)
2. CCCCCC1C(=O)N(CC)c2scn[n+]2C1=O (stereo not given)
3. CCCC1C(=O)N(CC)c2scn[n+]2C1=O (stereo not given)
4. CCC1C(=O)N(CC)c2sc(C)n[n+]2C1=O (stereo not given)
5. CC[N+]1=C2SC=NN2C(=O)C(C)C1=O (stereo not given)

Out:
17.2
2.6
1.6
0.2
0.4

Record Relative potency per entry; entries follow.
1. CC1C(=O)N(Cc2cccc(Cl)c2)c2scc(-c3ccccc3)[n+]2C1=O (stereo not given)
2. CCN1C(=O)C(CC(C)C)C(=O)[n+]2ncsc21 (stereo not given)
3. CCN1C(=O)C(C(C)C)C(=O)[n+]2ncsc21 (stereo not given)
4. CCC1C(=O)N2N=CSC2=[N+](CC)C1=O (stereo not given)
5. CCC1C(=O)N2C=CSC2=[N+](CC2CC2)C1=O (stereo not given)

Out:
1: 2.7; 2: 2.7; 3: 1.6; 4: 0.7; 5: 0.7

Record Relative potency per entry; entries follow.
1. CCC1C(=O)N(CC)c2scc[n+]2C1=O (stereo not given)
2. CCC1C(=O)N(CC2CC2)c2scc(-c3ccccc3)[n+]2C1=O (stereo not given)

Out:
1: 0.3; 2: 1.5
